# TGI listing for each entry below
Test system: COLO 205 colon
measurementProtocol: NCI tumour cell line growth inhibition, 48 h
measuredQuantity: TGI

1) Cc1ccc(S(=O)(=O)N=Nc2c(O)[nH]c3c(Cl)cc(Cl)cc23)cc1	> 100 µM
2) CN=C1SC(=Nc2ccc(N(C)C)cc2)N1C	> 100 µM
3) OCC1OC(n2cnc3c(/C=C(/O)c4ccccc4)ncnc32)C(O)C1O (stereo unspecified)	2.7 µM
4) Cc1c2cc[n+](C)cc2c(C)c2c1[nH]c1ccc(O)c(OCC(F)(F)F)c12	12.6 µM
5) C/C(O)=C/c1nc2ccc([N+](=O)[O-])cc2nc1/C=C(/C)O	> 100 µM
6) Nc1cc(N2CCCC2)nc(=O)n1Cc1ccccc1	> 100 µM
7) C[N+](C)(C)c1ncnc2c1ncn2C1CCCCO1 (stereo unspecified)	> 100 µM
8) O=C(NCc1ccc(Cl)cc1)c1cc2sccc2nc1C(F)(F)F	> 100 µM
9) CCN(CC)CCCC(C)Nc1c2ccc(C)cc2nc2ccc(OC)cc12 (stereo unspecified)	2.96 µM
10) NNC(=S)N1CCN(C(=S)NN)CC1	> 100 µM
11) CC(=O)Nc1ccc(S(=O)(=O)NNC(=O)c2cccnc2Nc2ccc(Cl)cc2)cc1	57 µM
